Target: eqBuChE (BuChE from equine serum) (Equus caballus, UniProt P81908)
Construct: eqBuChE (BuChE from equine serum)
Sequence (P81908 whole entry): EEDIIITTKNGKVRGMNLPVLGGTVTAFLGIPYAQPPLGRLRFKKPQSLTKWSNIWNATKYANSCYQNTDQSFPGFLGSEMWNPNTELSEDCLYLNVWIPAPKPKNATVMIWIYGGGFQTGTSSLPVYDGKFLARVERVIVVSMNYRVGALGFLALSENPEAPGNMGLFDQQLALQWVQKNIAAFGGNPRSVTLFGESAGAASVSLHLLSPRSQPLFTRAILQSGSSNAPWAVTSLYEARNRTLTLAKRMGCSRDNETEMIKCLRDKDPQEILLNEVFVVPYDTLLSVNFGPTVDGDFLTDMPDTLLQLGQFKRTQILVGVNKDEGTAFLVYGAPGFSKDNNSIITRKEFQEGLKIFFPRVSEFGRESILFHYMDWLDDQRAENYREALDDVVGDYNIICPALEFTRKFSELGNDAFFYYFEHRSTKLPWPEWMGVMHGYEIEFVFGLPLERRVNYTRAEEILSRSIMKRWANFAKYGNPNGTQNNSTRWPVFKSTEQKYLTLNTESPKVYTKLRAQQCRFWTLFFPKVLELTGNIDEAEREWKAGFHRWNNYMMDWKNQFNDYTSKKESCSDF
Test: biochemical
Settings: [S] = 112 µM; mean ± SD
Readout: pIC50
Give only the number. pIC50 is defined as minus log10 of concentration in molar units.

| Compound | System Under Test | pIC50 |
| --- | --- | --- |
| OC[C@@H]1[C@@H](O)[C@H](O)[C@@H](O)CN1CCCn1cc(Cn2nnc3ccccc32)nn1 [Compound 12a] | eqBuChE (BuChE from equine serum) (Equus caballus, UniProt P81908) | 4.30 |
| OC[C@@H]1[C@@H](O)[C@H](O)[C@@H](O)CN1CCCCCCCCn1cc(Cn2nnc3ccccc32)nn1 [Compound 12c] | eqBuChE (BuChE from equine serum) (Equus caballus, UniProt P81908) | 4.59 |
| OC[C@@H]1[C@@H](O)[C@H](O)[C@@H](O)CN1CCCCCCn1cc(Cn2nnc3ccccc32)nn1 [Compound 12b] | eqBuChE (BuChE from equine serum) (Equus caballus, UniProt P81908) | 5.17 |

Pending compound:
Input: Would you mind telling me what pIC50 value was observed for OC[C@@H]1[C@@H](O)[C@H](O)[C@@H](O)CN1CCCCCCCCCCn1cc(Cn2nnc3ccccc32)nn1 [Compound 12d] ?
Output: 4.77

* * *

Biological target: eqBuChE (BuChE from equine serum) (Equus caballus)
Construct: eqBuChE (BuChE from equine serum); from tissue; host or cells: equine serum
Experiment: biochemical
Format: biochemical
Settings: IC50(AChE)/IC50(BuChE)
BuChE selectivity values, listed per item

See these solved cases before continuing.
| Molecule | BuChE selectivity |
| --- | --- |
| OC[C@@H]1[C@@H](O)[C@H](O)[C@@H](O)CN1CCCn1cc(Cn2nnc3ccccc32)nn1 [Compound 12a] | >10 |
| OC[C@@H]1[C@@H](O)[C@H](O)[C@@H](O)CN1CCCCCCCCn1cc(Cn2nnc3ccccc32)nn1 [Compound 12c] | >19 |

Input: Would you mind telling me what BuChE selectivity value was observed for OC[C@@H]1[C@@H](O)[C@H](O)[C@@H](O)CN1CCCCCCn1cc(Cn2nnc3ccccc32)nn1 [Compound 12b] ?
Output: 9.7

Input: Would you mind telling me what BuChE selectivity value was observed for OC[C@H]1NC[C@H](O)[C@@H](O)[C@@H]1O [Compound 4, 1-deoxynojirimycin, reference compound] ?
Output: >10
